Data origin: the supplement of paper PMC9170038

System: MS2 coat protein
Assay: apparent KD of MS2 coat protein; designed switch direction (-1 OFF switch, 1 ON switch): 1; higher = weaker reporter binding
Details: input ligand: none
Class membership depends on apparent KD of MS2 coat protein alone; the intervals are low class: < 40 nM; middle class: ≥ 40 nM and < 100 nM; high class: ≥ 100 nM

BIOSEQUENCE	CAT
GAUCGUUUGAUAGGAUAUCGCUAUACAUGAGGAUCACCCAUGUUUACCACGCUGGUUUUUCGUACCGAGAAGGAUUCUGAUGAU [JL JR sub007 mod 5] (Eterna round: R96, puzzle: Same State NG 2)	low class
AUAGUUGCUGAAGGAUAUGAUGAGGAUCACCCAUCAGAAGGUUGGCUAUUGGGUGGACAUGAGGAUCACCCGUGUUCUUUGGUA (Eterna round: R96, puzzle: Same State NG 1)	middle class
AAAAGAAACAUGUACCUGAGUACAUGAAAACAUGAGGAUCACCCAUGUAACAAGUUGGGUGUUUGUCUUAUAAGAAA [JL pocket 5] (Eterna round: R96, puzzle: Sensor for hsa-mir-208a)	high class
GGAGCCGGUACUGAGGAUAUUCAUAUUAAAACAUGAGGAUCACCCAUGUGGGCCAGAAGGCCUUGGGAGAAGGCAGACCAGCUCG [Atgexeedri - 3] (Eterna round: R96, puzzle: Same State 2)	high class
GUUAGGAAUCUAGCAUACAUGAGGAUCACCCAUGUAAGUGGGAAGGAUAUGGUACAGAAACUGUACCAGAAGGUCUUAUUGAUU [Omei SS(NG) 3 AV6] (Eterna round: R96, puzzle: Same State NG 3)	middle class
UUGAAGAAUUAAGGAUAUCGAGUCAAGAUGUUAAACAUGAGGAUCACCCAUGUGGGUUGCGGUAUCGAGAAGGUAAAUUACAAG [JL SSNG2 1.41] (Eterna round: R96, puzzle: Same State NG 2)	low class
GUGGCUGCCACAGGAUAUACCGUGUAAUUCACGGUAGAAGGGUGAAGCACUCAAAAGAGUGCUAACAUGAGGAUCACCCAUGUG [Quzaon] (Eterna round: R96, puzzle: Same State NG 1)	high class
UUGUUUGGUAAAAUACAUGAGGAUCACCCAUGUUAUGGUGCAGAGGAUAUGCAUGUUUGAUUGAAGCAGAAGGCUGUAAGUUGU [JR_SSNG3_Sub036] (Eterna round: R96, puzzle: Same State NG 3)	middle class
ACAUAGGUUUCAGGAUAUGGGUAAAUUCCCAACAUGAGGAUCACCCAUGUCCGUAGGGAUAACAUCCAGAAGGGAAGCCACAUA [MOD Eternabot Solution 1 (Score 87.5)] (Eterna round: R96, puzzle: Same State NG 2)	middle class
GCGAAAGCGGUAGGAUAUCUAGGAUAUGGGAAAGACUAAGUCUGUAGGUCACCUAACCCAGAAGGAGAGAAGGACAGGGAAACC [pwkr ssNG2 2FMN + F9.34] (Eterna round: R96, puzzle: Same State NG 2)	low class
UGAAUGGUGAUAGGAUAUACAUGAGGAAUCCUCGUAGAAGGAUCAUGACAUGAGGAUCACCCAUGUAGCCGUCCGUAGACGGCA [JL SSNG1 1.22] (Eterna round: R96, puzzle: Same State NG 1)	high class
ACAAGCUUUUUGCUCCUCUUAUGUCCGAAACAUGAGGAUCACCCAUGUAUAGAUUGUGUGUUGUUGUAGAUGCAAGA [JR_SHM208A_Sub061] (Eterna round: R96, puzzle: Sensor for hsa-mir-208a)	middle class
GUUACAUGAGGAUCACCCAUGUAUGUGUGGGAGUAAGUGUCUUAGGAUAUCUAUCAUUUAAAUUAAGAGAAGGAAGAUUGUUGU [JMF's solution 12] (Eterna round: R96, puzzle: Same State NG 3)	high class
AUGAAGAAUUAAGGAUAUUGAUUACAUAUGUUUAACAUGAGGAUCACCCAUGUGGGUUGCGGUAUCGAGAAGGUAAAAUAAAAG [Mat - same State NG 2 - JL mod - D89] (Eterna round: R96, puzzle: Same State NG 2)	high class
AGCCGAAGCACAGGAUAUACAUGUAUACAUGAGGAUCACCCAUGUAGCAACACGUGGUAGUGAUUGUAGAAGGGUGCUCGGCGC [Omei SS(NG)2 Cv14] (Eterna round: R96, puzzle: Same State NG 2)	low class
GCGGUACCUAACAUGAGGAUCACCCAUGUUCCGGAAACGGCACAGGAUAUCUGUCCGAAAAGGUCAGAGAAGGGUGAAAUCCGC [Fiskers NG3ss - 93] (Eterna round: R96, puzzle: Same State NG 3)	middle class
AUACUCAUGUAAGGAUAUGCAGCCGAAACGGCUGCAGAAGGUACUAUAAUACAUGAGGAUCACCCAUGUCAAAAUUAUUUAGUU [Mat - Same State NG 1 - JL mod - D99] (Eterna round: R96, puzzle: Same State NG 1)	low class
AAUCGUUUGAUAGGAUAUCGCUAUACAUGAGGAUCACCCAUGUUUACCACACUGGUUUUUCGUACCGAGAAGGAUUCUGAUGAU [JL JR sub007 mod 9] (Eterna round: R96, puzzle: Same State NG 2)	middle class
